Test system: Wnt5a (protein binding on small-molecule microarray)
test-protocol: Wnt5a binders on small-molecule microarray, primary screen, biophysical, 635/667 nm fluorescence (AID 1142);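 also: fluorescence read at 667 nm with signal to noise per printed feature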
assay-setup: 635 nm fluorescence, higher = more signal
Threshold check on composite z-score: at or above 0.1 gives 1.0, strictly below gives 0.0.

For orientation, consider the following solved cases.
Cc1ccc(F)cc1S(=O)(=O)N[C@@H]1CCN(Cc2ccc3[nH]ccc3c2)C1 ... 0.0
COCCOC(=O)N1C(=O)[C@@]2(c3cc(C#CCCO)ccc31)[C@H](C(=O)N1CCN(c3ncccn3)CC1)[C@H]1C(=O)O[C@H](c3ccccc3)[C@H](c3ccccc3)N1[C@@H]2c1ccc(O)cc1 ... 1.0
O=C(NCC(F)(F)F)[C@@H]1c2ccccc2C(=O)N(CC23CC4CC(CC(C4)C2)C3)[C@H]1c1ccc(CO)cc1 ... 1.0
COC(=O)[C@@]1(Cc2ccccc2)[C@@H]2[C@@H](CC(=O)[C@H]2CC(=O)C(=O)N(C)C)CN1C(=O)c1ccccc1 ... 0.0
C=C(COC)C(=O)CC[C@@H](OC(C)=O)c1ccc(OCCO)cc1 ... 1.0
CCCC[C@@H]1C[C@H]1[C@@H](NC(=O)c1ccc(C(F)(F)F)cc1)c1ccc(C(=O)OC)cc1 ... 1.0

Evaluate CC(C)C[C@@H]1NC(=O)[C@@]23C(=O)N[C@@H](Cc4ccccc4)C2[C@H](C)[C@@]2(C)O[C@H]2C3/C=C/C/C=C\CNC(=O)[C@@H](CC(C)C)NC1=O (stereo partly drawn) : composite z-score at minimum 0.1?
0.0

Again, but for `COCCOC(=O)N1C(=O)[C@@]2(c3cc(C#CC4(O)CCCCCC4)ccc31)[C@H](c1ccc(OCCO)cc1)N1[C@H](c3ccccc3)[C@H](c3ccccc3)OC(=O)[C@H]1[C@@H]2C(=O)N1CCCCCCC1`
1.0
